Hello, the source for this data is ChEMBL document CHEMBL4513216, in case you need it.

assay: Toxicity liver stage against HepG2, at 10uM; type: cell-based; design: test concentration 10 uM, cell line HepG2-A16-CD81EGFP; conditions: human, HepG2-A16-CD81EGFP cells; read-out: INHIBITION
Observed property: cytotoxicity at 10 µM (%)
Answers are plain numbers, in %.

                                   compound  numeric_value
0  O=C(C1CN(CC2CCOCC2)CC12CCOCC2)N1CCCC1 (stereo not given)           6.65
1  CC(=O)NCCNCC1(O)CCCN(CCC2CCCCC2)C1=O (stereo not given)           6.27
2  Cc1noc(C)c1CNc1cc(N2CCCC2CO)ncn1 (stereo not given)           1.42
3    COCC(=O)N(Cc1cccnc1)CC1CCN(C2CCCC2)CC1           1.49
4  N#Cc1ccccc1CN1C[C@H]2CC[C@@H](C1)N(CC1CCC1)C2=O          0.258
5       O=C(c1ccco1)N1CCn2cc(CN3CCCC3)nc2C1          -78.9
6  O=C(NCc1ccc2c(c1)OCO2)[C@H]1C=CCN1c1ncccn1          -4.52
7           Cc1cc(-c2nn3c(C4CCC4)nnc3s2)on1          -5.65

State the recorded cytotoxicity at 10 µM for every item in the following list.
1. CCc1ccc(CN2CCC3(CC2)C(=O)N(C)CCN3CC)cc1
2. CC(C)NC(=O)N1C[C@H](OCc2cccnc2)[C@H]2COC[C@H]21
3. O=C(Nc1cccnc1)NC1(c2cccc(F)c2)CC1
4. O=C(O)Cc1cn2cc(C(F)(F)F)ccc2n1
5. C=c1ncsc1=C1NN=C(C2CCCN2C(=O)Cn2cccn2)O1 (stereo not given)

Outgoing:
[-4.13, 6.43, 1.41, 11.4, 4]

###

assay: Toxicity liver stage against HepG2, at 10uM; format: cell-based; parameters: test concentration 10 uM, cell line HepG2-A16-CD81EGFP; conditions: human, HepG2-A16-CD81EGFP cells; read-out: INHIBITION
Observed property: cytotoxicity at 10 µM
State the value with its unit after it.

Known cytotoxicity at 10 µM results, listed for orientation:
>>> df
                                   compound      observed_property  result
0       CN(CCn1cnnc1)C(=O)c1ccnc(OC2CCC2)c1  cytotoxicity at 10 µM    5.1%
1  CN1CCN(Cc2cccnc2)C2(CCN(c3ncc(F)cn3)C2)C1=O (stereo not given)  cytotoxicity at 10 µM  -6.49%
2  CN(C)CCCNC(=O)c1ccccc1NC(=O)c1cc(Cl)ccc1Cl  cytotoxicity at 10 µM    -17%
3           COCCNC(=O)Nc1cccc(COCCOC(C)C)c1  cytotoxicity at 10 µM   6.13%
4  CC(O)CN1CCC(CNCc2ccccc2OC(F)(F)F)CC1 (stereo not given)  cytotoxicity at 10 µM  -11.6%

State the recorded cytotoxicity at 10 µM for every item in the following list.
1. Cc1c(-c2cnn(C)c2)nc(N)c(C#N)c1-c1ccc(CO)o1
2. O=C(CCN1CCc2ccccc21)N1CC(C(=O)N2CCOCC2)C1
3. CN(CCc1ccncc1)Cc1nccn1Cc1ccccc1
4. CC(=O)N1[C@H](CN(C)C)C[C@@H]2CN(c3ncc(F)cn3)CC[C@@H]21
5. CC(c1nc(-c2ccccc2)no1)N1CC(n2cccn2)C1 (stereo not given)

Outgoing:
1. -117%
2. -26.7%
3. 15.1%
4. 5.56%
5. 1.62%
